System: HS 578T breast
Assay Comment: NCI tumour cell line growth inhibition, 48 h; in the data active = GI50 below about 0.43 µM; inactive = the rest
Reply using exactly one outcome from active, inactive

In: Status in this test for NC(=O)c1ccc2c(-c3ccnc(NCCCO)n3)c(-c3ccc(F)cc3)nn2c1 ?
Out: inactive

In: Status in this test for c1cc(OCCN2CCCCC2)ccc1CNc1ccc2nc(CCC3CCCCC3)[nH]c2c1 ?
Out: inactive

In: Status in this test for O=CN1N=C(c2ccc(Cl)cc2)CC1c1cccc(Nc2ccnc3cc(Cl)ccc23)c1 (centres undefined) ?
Out: inactive

In: Status in this test for Cc1cc(-c2nnc(N)nc2-c2ccc(F)cc2)cc(Cl)n1 ?
Out: inactive

In: Status in this test for COc1c(Cl)c2c(c(OC)c1OC)-c1ccc(SC)c(=O)cc1[C@@H](NC(=O)OCC(F)(F)F)CC2 ?
Out: active

In: Status in this test for NC(=N\N=C/c1cccc([N+](=O)[O-])c1)/C(N)=N\N=C/c1cccc([N+](=O)[O-])c1 ?
Out: inactive

In: Status in this test for O=C(CC12CC3CC(CC(C3)C1)C2)NCCOCCOCCOCCNC(=O)c1cc2c(o1)C(=O)c1ccccc1C2=O ?
Out: inactive

In: Status in this test for c1cn2cc(-c3ccc4ncn(C5CCCCC5)c4c3)nc(-c3ccc4c(c3)ncn4C3CCCCC3)c2n1 ?
Out: inactive

In: Status in this test for COc1cc2c(cc1OCCCCCCN1CCN(c3ncnc4ccccc34)CC1)N=CC1CCCN1C2=O (centres undefined) ?
Out: active

----------
System: 786-0 renal
Assay Comment: NCI tumour cell line growth inhibition, 48 h
Measurement Type: TGI

COc1cc2c(cc1OCCCCCCN1CCN(c3ncnc4ccccc34)CC1)N=CC1CCCN1C2=O (stereo not given) = 0.649 µM
COc1ccc2cc(/C=N\NC(=O)Nc3cccc4ccccc34)ccc2c1 = 25.5 µM
CCCCCCCCCCCCC(O)C1CCC(C(O)CCCCCCC(O)CCCCCCCC2=CC(C)OC2=O)O1 (stereo not given) = > 100 µM

In: // Input: COC(=O)C12CC(c3ccccc31)C1C(=O)OC(=O)C12 (stereo not given) . Output its TGI only.
Out: > 100 µM

In: // Input: Cc1ccc(NC(=O)CC(=O)n2nc(-c3ccccc3)c(N=Nc3ccccc3Cl)c2-c2ccccc2)cc1 . Output its TGI only.
Out: > 100 µM

In: // Input: COC1CC(OC2CCC3(C)C(CCC45CCC(C6=CC(=O)OC6)C(C)(CCC43)C5=O)C2)OC(C)C1O (stereo not given) . Output its TGI only.
Out: 64.8 µM

In: // Input: O=c1ccnc2c1ccc1[nH]cccc12 . Output its TGI only.
Out: > 100 µM

In: // Input: COc1ccc(C(=O)OC2C=COC(C)C2OC(=O)c2ccc(OC)cc2)cc1 (stereo not given) . Output its TGI only.
Out: > 86.6 µM

In: // Input: CCn1c(O)c(C=N)c(=O)n(CC)c1=O . Output its TGI only.
Out: > 100 µM

In: // Input: c1cc(OCCN2CCCCC2)ccc1CNc1ccc2nc(CCC3CCCCC3)[nH]c2c1 . Output its TGI only.
Out: 3.55 µM

----------
System: SF-539 CNS
Assay Comment: NCI tumour cell line growth inhibition, 48 h
Measurement Type: TGI (µM)
The figure you give is taken to be in µM; do not add the unit.

Sample answers from the record:
O=C1NC(=S)NC(=O)C1=Cc1cccc2cc3ccccc3cc12 = 3.1
CC(=O)OC1COC(n2c(-c3ccc(Cl)cc3)cc(-c3ccccc3)c(C#N)c2=S)C(OC(C)=O)C1OC(C)=O (stereo not given) = 15.2
COc1cc(C2C3=C(COC3=O)Oc3cc4c(cc32)OCO4)ccc1OC(C)=O (stereo not given) = 0.749
C=C1CC(C)(COc2ccc3ccc(=O)oc3c2)OC1=O (stereo not given) = 10.2
COC(=O)C1=C(\c2ccccc2)c2ccccc2C(=O)N(C2CCCCC2)/C=C\1 = 55.9

In: // fetch TGI; item: NC(N)=N/N=C/c1c(-c2ccc([N+](=O)[O-])cc2)nc2n1CCS2 ; system: SF-539 CNS
Out: 32.3

In: // fetch TGI; item: COc1cc(C(c2cc3c(cc2O)OCO3)N2CCCCC2)cc(OC)c1OC (stereo not given) ; system: SF-539 CNS
Out: 33.9

----------
Examples of molecules with documented TGI follow.
Tested on: U251 CNS
Assay Comment: NCI tumour cell line growth inhibition, 48 h

Sample answers from the record:
CC(C)(C)[Si](C)(C)OCC1CCC(n2cnc3c(N)ncnc32)O1 (stereo not given) = > 100 µM
CC[O-].CC[O-].O=C1C(c2ccccc2)=C([O-])c2ccccc21.O=C1C(c2ccccc2)=C([O-])c2ccccc21.[Ti+4] = > 100 µM
CC1(C)CC(n2cnc(-c3ccc(F)cc3)c2-c2ccnc(N)n2)CC(C)(C)N1 = > 25 µM
CN(C)C(=O)Nc1cc2c3c(c1)CCCN3CCC2 = > 10 µM

In: // fetch TGI; item: C=C(Br)CN(C(C)=O)C1CCCCC1 ; system: U251 CNS
Out: > 100 µM

----------
Tested on: UO-31 renal
Assay Comment: NCI tumour cell line growth inhibition, 48 h
Examples of compounds with documented TGI follow.

O=c1[nH]c2c3ccccc3ccc2c2cc3c(cc12)OCO3 = > 100 µM
O=C(CC12CC3CC(CC(C3)C1)C2)NCCOCCOCCOCCNC(=O)c1cc2c(o1)C(=O)c1ccccc1C2=O = 3.13 µM
O=C([O][Hg][CH2]C1COCC([CH2][Hg][O]C(=O)c2ccccc2)O1)c1ccccc1 (stereo not given) = 3.39 µM
Cc1nc2cc(N)c(F)cc2[nH]1 = > 100 µM

In: // Input: O=C(O)c1ccccc1C(=O)Nn1cnnc1 . Output its TGI only.
Out: > 100 µM

In: // Input: N#Cc1sc2c(c1OC(=O)c1cccs1)c(=O)n(-c1ccccc1)c(=S)n2-c1ccccc1 . Output its TGI only.
Out: 32.7 µM

In: // Input: COc1cc(Nc2cnc3cc(F)c(F)cc3n2)cc(OC)c1 . Output its TGI only.
Out: > 100 µM

In: // Input: OC(C/C(=N\N1CCCCC1)c1cccs1)(C(F)(F)F)C(F)(F)F . Output its TGI only.
Out: > 10 µM

In: // Input: NC(=N\N=C/c1cccc([N+](=O)[O-])c1)/C(N)=N\N=C/c1cccc([N+](=O)[O-])c1 . Output its TGI only.
Out: > 100 µM

In: // Input: CC(=O)NC1C(O)C(O)C(CO)OC1n1ncc(=O)[nH]c1=O (stereo not given) . Output its TGI only.
Out: > 100 µM

----------
System: OVCAR-8 ovarian
Assay Comment: NCI tumour cell line growth inhibition, 48 h
Examples of compounds with documented TGI follow.

COc1cc(C(c2cc3c(cc2O)OCO3)N2CCCCC2)cc(OC)c1OC (stereo unspecified) = 28.1 µM

In: // fetch TGI; item: COc1ccc(/C=C2\CCCCCC2=O)cc1 ; system: OVCAR-8 ovarian
Out: > 100 µM

In: // fetch TGI; item: COc1cccc(-c2nc3sccn3c2-c2ccnc(NCCNS(=O)(=O)c3ccccc3)c2)c1 ; system: OVCAR-8 ovarian
Out: > 100 µM

In: // fetch TGI; item: CCOC(=O)/C(C#N)=C1\c2c([nH]c(=S)[nH]c2=O)Oc2ccc3ccccc3c21 ; system: OVCAR-8 ovarian
Out: > 100 µM

In: // fetch TGI; item: CC(=O)Nc1c(C)ccc2c1C(=O)c1ccccc1C2=O ; system: OVCAR-8 ovarian
Out: > 100 µM

----------
Test system: OVCAR-4 ovarian
Assay Comment: NCI tumour cell line growth inhibition, 48 h
Measurement Type: TGI

Sample answers from the record:
COc1ccc2c(CN3CCC[C@H]3C(=O)O)cc3cc4c(cc3c2c1)OCO4 = 61.4 µM
COc1ccc2cc3[n+](cc2c1OC)CCc1cc(O)c(O)cc1-3 = > 100 µM
CC[O-].CC[O-].O=C1C(c2ccccc2)=C([O-])c2ccccc21.O=C1C(c2ccccc2)=C([O-])c2ccccc21.[Ti+4] = > 100 µM
Cc1cc2cc3c(C)cc(=O)oc3c(C)c2o1 = > 100 µM
COC1=C(N2CC2)C(=O)c2nc3n(c2C1=O)CCC3 = 0.526 µM
CCOC(=O)C(NC(=O)CC(C)C)(Nc1ccc(S(=O)(=O)Nc2nc(C)cc(C)n2)cc1)C(F)(F)F (stereo not given) = > 100 µM

In: // fetch TGI; item: COC(=O)C12CC3CC(C1)CC(C(=O)OC)(C3)C2 ; system: OVCAR-4 ovarian
Out: > 100 µM

In: // fetch TGI; item: COC(=O)C12CC(c3ccccc31)C1C(=O)OC(=O)C12 (stereo not given) ; system: OVCAR-4 ovarian
Out: > 100 µM

In: // fetch TGI; item: NC(=O)C(c1ccccc1)N1OC2C(=O)N(c3cccc4ccccc34)C(=O)C2C1c1c2ccccc2c(Cl)c2ccccc12 (stereo not given) ; system: OVCAR-4 ovarian
Out: 33.2 µM

In: // fetch TGI; item: O=C1NC2CCC(C2)C1c1ccccc1 (stereo not given) ; system: OVCAR-4 ovarian
Out: > 100 µM
